Values from patent US20150038435A1

assay: Hydrophobicity: retention time during reverse phase HPLC; format: physicochemical; details: Acquity CSH C18; pH 7.2 buffer/CH3CN gradient; 40° C.
*: point of attachment. Lauroyl = CCCCCCCCCCCC(=O)*
Below, each entry is listed with its recorded RT (retention time during reverse phase HPLC as a measure of hydrophobicity).
measured-metric: RT (retention time during reverse phase HPLC as a measure of hydrophobicity)

| substance | result |
| --- | --- |
| N-dodecanoyl-Glu-Pro-Tyr-OH [Example 117] | 3.91 min |
| N-dodecanoyl-Ala-Ala-Asp-Tyr-OH (Lauroyl-AADY-OH; SMILES CCCCCCCCCCCC(=O)N[C@@H](C)C(=O)N[C@@H](C)C(=O)N[C@@H](CC(=O)O)C(=O)N[C@@H](Cc1ccc(O)cc1)C(=O)O) [Example 60] | 4.33 min |
| N-dodecanoyl-Arg-Pro-Tyr-OH [Example 113] | 5.29 min |
| N-dodecanoyl-Val-Pro-Tyr-OH [Example 111] | 7 min |
| N-dodecanoyl-Leu-Pro-Tyr-OH [Example 121] | 7.77 min |
| N-dodecanoyl-Trp-Pro-Tyr-OH [Example 109] | 8.24 min |
| N-dodecanoyl-Val-Ala-Pro-Tyr-OH (Lauroyl-VAPY-OH; SMILES CCCCCCCCCCCC(=O)N[C@H](C(=O)N[C@@H](C)C(=O)N1CCC[C@H]1C(=O)N[C@@H](Cc1ccc(O)cc1)C(=O)O)C(C)C) [Example 55] | 7.01 min |
| N-dodecanoyl-Asn-Ala-Pro-Tyr-OH (Lauroyl-NAPY-OH; SMILES CCCCCCCCCCCC(=O)N[C@@H](CC(N)=O)C(=O)N[C@@H](C)C(=O)N1CCC[C@H]1C(=O)N[C@@H](Cc1ccc(O)cc1)C(=O)O) [Example 94] | 4.77 min |
| N-dodecanoyl-Asn-Pro-Tyr-OH [Example 114] | 5.07 min |
| N-dodecanoyl-Lys-Pro-Tyr-OH [Example 122] | 5.17 min |
| N-dodecanoyl-Ala-Pro-Pro-Tyr-OH (Lauroyl-APPY-OH; SMILES CCCCCCCCCCCC(=O)N[C@@H](C)C(=O)N1CCC[C@H]1C(=O)N1CCC[C@H]1C(=O)N[C@@H](Cc1ccc(O)cc1)C(=O)O) [Example 85] | 6.1 min |
| N-dodecanoyl-Ala-Ala-Val-Tyr-OH (Lauroyl-AAVY-OH; SMILES CCCCCCCCCCCC(=O)N[C@@H](C)C(=O)N[C@@H](C)C(=O)N[C@H](C(=O)N[C@@H](Cc1ccc(O)cc1)C(=O)O)C(C)C) [Example 72] | 6.44 min |
| N-dodecanoyl-Lys-Ala-Pro-Tyr-OH (Lauroyl-KAPY-OH; SMILES CCCCCCCCCCCC(=O)N[C@@H](CCCCN)C(=O)N[C@@H](C)C(=O)N1CCC[C@H]1C(=O)N[C@@H](Cc1ccc(O)cc1)C(=O)O) [Example 45] | 4.62 min |
| N-dodecanoyl-Tyr-Pro-Tyr-OH [Example 110] | 6.24 min |
